# inhibition per entry
# tested_target: Serine/threonine-protein kinase mTOR (Homo sapiens, UniProt P42345)
# assay_details: Inhibition of human mTOR at 10 uM using 4EBP1 as substrate after 120 mins by [gamma-33P]-ATP assay relative to control
Include the unit after the number when you answer.

Guide cases for inhibition, answers given:
{"columns": ["smiles_str", "inhibition"],
 "data": [
  ["O=C(Nc1ccc(-c2nc(N3CCOCC3)c3ccccc3n2)cc1)Nc1ccc(S(=O)(=O)Nc2ccccc2)cc1", "75%"],
  ["CCC(=O)c1ccc(NC(=O)Nc2ccc(-c3nc(N4CCOCC4)c4ccccc4n3)cc2)cc1", "73%"],
  ["O=C(Nc1ccc(-c2nc(N3CCOCC3)c3ccccc3n2)cc1)Nc1ccc(S(=O)(=O)Nc2ccc(F)cc2F)cc1", "70%"],
  ["CCOC(=O)c1ccc(NC(=O)Nc2ccc(-c3nc(N4CCOCC4)c4ccccc4n3)cc2)cc1", "81%"]
]}

With those in mind, consider the next compound.
stdin: Reported inhibition, compound O=C(Nc1ccc(-c2nc(N3CCOCC3)c3ccccc3n2)cc1)Nc1ccc(S(=O)(=O)Nc2ccc(F)cc2)cc1 : ____
stdout: 60%

* * *

# assay_details: Cytotoxicity against human primary fibroblasts assessed as cell viability at 10 uM after 48 hrs by celltiter-glo 2D luminescent assay relative to control
# Type: cell-based, Fibroblast
# measurement_context: read-out: Activity
# viability at 48 h, 10 µM per entry
Write the answer as a number in %, unit excluded.

Guide cases for viability at 48 h, 10 µM, answers given:
{"columns": ["smiles_str", "value_unit", "viability at 48 h, 10 µM"],
 "data": [
  ["NS(=O)(=O)c1ccc(NC(=O)Nc2ccc(-c3nc(N4CCOCC4)c4ccccc4n3)cc2)cc1", "%", 84],
  ["O=C(Nc1ccc(-c2nc(N3CCOCC3)c3ccccc3n2)cc1)Nc1cccc(CO)c1", "%", 94],
  ["CC(=O)c1ccc(NC(=O)Nc2ccc(-c3nc(N4CCOCC4)c4ccccc4n3)cc2)cc1", "%", 20],
  ["CNC(=O)Nc1ccc(-c2nc(N3CCOCC3)c3ccccc3n2)cc1", "%", 71],
  ["O=C(Nc1ccc(-c2nc(N3CCOCC3)c3ccccc3n2)cc1)Nc1ccc(S(=O)(=O)Nc2nccs2)cc1", "%", 95]
]}

With those in mind, consider the next compound.
stdin: Reported viability at 48 h, 10 µM, compound CNC(=O)c1ccc(NC(=O)Nc2ccc(-c3nc(N4CCOCC4)c4ccccc4n3)cc2)cc1 : ____
stdout: 80

* * *

# tested_target: PI3-kinase p110-alpha/p85-alpha (Homo sapiens, UniProt P42336)
# Sequence (P27986 whole entry): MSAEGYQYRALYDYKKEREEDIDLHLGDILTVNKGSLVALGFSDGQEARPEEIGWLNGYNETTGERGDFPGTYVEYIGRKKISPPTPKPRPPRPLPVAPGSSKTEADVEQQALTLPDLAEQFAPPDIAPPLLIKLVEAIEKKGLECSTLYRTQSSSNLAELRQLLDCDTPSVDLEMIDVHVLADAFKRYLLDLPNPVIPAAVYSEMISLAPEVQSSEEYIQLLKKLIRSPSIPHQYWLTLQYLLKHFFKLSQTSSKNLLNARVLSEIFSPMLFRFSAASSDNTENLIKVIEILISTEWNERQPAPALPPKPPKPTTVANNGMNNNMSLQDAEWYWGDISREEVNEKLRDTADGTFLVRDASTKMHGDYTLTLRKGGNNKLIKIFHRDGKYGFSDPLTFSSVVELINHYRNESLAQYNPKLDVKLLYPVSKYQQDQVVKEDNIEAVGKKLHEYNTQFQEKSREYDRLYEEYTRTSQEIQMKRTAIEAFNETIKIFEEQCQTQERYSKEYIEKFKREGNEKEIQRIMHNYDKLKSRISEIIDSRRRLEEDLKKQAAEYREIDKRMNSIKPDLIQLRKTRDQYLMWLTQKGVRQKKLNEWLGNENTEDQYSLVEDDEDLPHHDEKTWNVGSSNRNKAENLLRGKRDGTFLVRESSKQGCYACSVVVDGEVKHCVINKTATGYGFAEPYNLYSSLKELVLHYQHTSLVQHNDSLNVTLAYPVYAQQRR
# Sequence (P42336 whole entry): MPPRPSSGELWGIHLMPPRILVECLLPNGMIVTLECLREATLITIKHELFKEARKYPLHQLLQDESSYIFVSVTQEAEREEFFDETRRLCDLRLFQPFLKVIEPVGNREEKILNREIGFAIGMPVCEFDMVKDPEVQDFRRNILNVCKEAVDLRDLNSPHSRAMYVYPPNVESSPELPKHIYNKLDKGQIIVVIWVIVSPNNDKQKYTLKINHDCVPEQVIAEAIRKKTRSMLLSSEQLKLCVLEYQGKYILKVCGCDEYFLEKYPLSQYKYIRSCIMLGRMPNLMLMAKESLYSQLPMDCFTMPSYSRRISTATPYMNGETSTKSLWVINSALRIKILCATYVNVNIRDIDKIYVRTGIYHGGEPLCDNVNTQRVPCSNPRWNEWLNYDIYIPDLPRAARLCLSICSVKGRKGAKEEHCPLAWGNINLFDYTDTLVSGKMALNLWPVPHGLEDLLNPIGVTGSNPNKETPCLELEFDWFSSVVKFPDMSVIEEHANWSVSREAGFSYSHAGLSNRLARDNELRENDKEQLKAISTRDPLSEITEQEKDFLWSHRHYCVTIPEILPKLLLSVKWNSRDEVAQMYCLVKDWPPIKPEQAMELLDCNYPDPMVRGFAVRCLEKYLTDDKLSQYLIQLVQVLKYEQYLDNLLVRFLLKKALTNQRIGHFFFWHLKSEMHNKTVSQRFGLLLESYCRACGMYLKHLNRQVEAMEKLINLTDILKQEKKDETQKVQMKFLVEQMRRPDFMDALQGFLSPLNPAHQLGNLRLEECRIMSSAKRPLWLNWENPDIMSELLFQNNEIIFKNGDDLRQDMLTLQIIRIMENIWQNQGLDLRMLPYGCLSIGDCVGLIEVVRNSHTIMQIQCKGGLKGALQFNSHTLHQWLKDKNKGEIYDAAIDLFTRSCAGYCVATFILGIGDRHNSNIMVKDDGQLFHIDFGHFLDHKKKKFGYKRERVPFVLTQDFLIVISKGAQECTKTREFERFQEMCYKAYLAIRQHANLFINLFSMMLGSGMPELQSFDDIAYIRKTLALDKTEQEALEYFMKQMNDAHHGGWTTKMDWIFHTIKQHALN
# assay_details: Inhibition of human PI3K p110alpha/p85alpha using PIP2 as substrate incubated for 10 mins followed by ATP addition and measured after 30 mins in presence of 10 uM ATP by HTRF assay
experimental_readout: pIC50
In plain terms, pIC50 is the concentration in mol/L turned into minus its base-10 logarithm.

Guide cases for pIC50, answers given:
{"columns": ["smiles_str", "experimental_readout", "measured_result"],
 "data": [
  ["CNC(=O)Nc1ccc(-c2nc(N3CCOCC3)c3ccccc3n2)cc1", "pIC50", 6.73],
  ["N=C(N)NS(=O)(=O)c1ccc(Nc2nc(N3CCOCC3)c3ccccc3n2)cc1", "pIC50", 5.23],
  ["NS(=O)(=O)c1ccc(NC(=O)Nc2ccc(-c3nc(N4CCOCC4)c4ccccc4n3)cc2)cc1", "pIC50", 8.47],
  ["CS(=O)(=O)Nc1ccc(NC(=O)Nc2ccc(-c3nc(N4CCOCC4)c4ccccc4n3)cc2)cc1", "pIC50", 8.21],
  ["O=C(Nc1ccccc1)Nc1ccc(-c2nc(N3CCOCC3)c3ccccc3n2)cc1", "pIC50", 7.92]
]}

stdin: Reported pIC50, molecule N=C(N)NS(=O)(=O)c1ccc(NC(=O)Nc2ccc(-c3nc(N4CCOCC4)c4ccccc4n3)cc2)cc1 : ____
stdout: 7.73

stdin: Reported pIC50, molecule CC(=O)c1ccc(NC(=O)Nc2ccc(-c3nc(N4CCOCC4)c4ccccc4n3)cc2)cc1 : ____
stdout: 7.78

* * *

# assay_details: Kinetic aqueous solubility of compound in 2% DMSO/Phosphate buffer saline incubated for 90 mins under shaking condition by
# Format: physicochemical
# measurement_context: 2% DMSO/phosphate buffered saline, read-out: Kinetic_solubility
The label depends only on solubility kinetic at 1.5 h: Met if it is at least 6 µM, Not met if it is smaller.

stdin: Say whether CC(=O)Nc1ccc(NC(=O)Nc2ccc(-c3nc(N4CCOCC4)c4ccccc4n3)cc2)cc1 shows solubility kinetic at 1.5 h of 6 µM or more.
stdout: Not met

stdin: Say whether O=C(Nc1ccc(-c2nc(N3CCOCC3)c3ccccc3n2)cc1)Nc1ccc(S(=O)(=O)Nc2ccccc2)cc1 shows solubility kinetic at 1.5 h of 6 µM or more.
stdout: Not met

stdin: Say whether O=C(Nc1ccc(CO)cc1)Nc1ccc(-c2nc(N3CCOCC3)c3ccccc3n2)cc1 shows solubility kinetic at 1.5 h of 6 µM or more.
stdout: Met

stdin: Say whether NS(=O)(=O)c1ccc(NC(=O)Nc2ccc(-c3nc(N4CCOCC4)c4ccccc4n3)cc2)cc1 shows solubility kinetic at 1.5 h of 6 µM or more.
stdout: Not met

stdin: Say whether O=C(Nc1ccc(-c2nc(N3CCOCC3)c3ccccc3n2)cc1)Nc1cncnc1 shows solubility kinetic at 1.5 h of 6 µM or more.
stdout: Not met

stdin: Say whether O=C(Nc1ccc(-c2nc(N3CCOCC3)c3ccccc3n2)cc1)Nc1ccc(S(=O)(=O)Nc2nccs2)cc1 shows solubility kinetic at 1.5 h of 6 µM or more.
stdout: Not met

stdin: Say whether CCOC(=O)c1ccc(NC(=O)Nc2ccc(-c3nc(N4CCOCC4)c4ccccc4n3)cc2)cc1 shows solubility kinetic at 1.5 h of 6 µM or more.
stdout: Not met

* * *

# tested_target: Serine/threonine-protein kinase mTOR (Homo sapiens, UniProt P42345)
experimental_readout: IC50 (µM)
Write the answer as a number in µM, unit excluded.

stdin: Which IC50 is reported with Serine/threonine-protein kinase mTOR (Homo sapiens, UniProt P42345) for this entry: O=S(=O)(Nc1nccs1)c1ccc(Nc2nc(N3CCOCC3)c3ccccc3n2)cc1 ?
stdout: 11.4

* * *

# tested_target: PI3-kinase p110-alpha/p85-alpha (Homo sapiens) (UniProt P27986+P42336)
# assay_details: Inhibition of human PI3K p110alpha/p85alpha at 10 uM using PIP2 as substrate incubated for 10 mins followed by ATP addition and measured after 30 mins in presence of 10 uM ATP by HTRF assay relative to control
# Type: protein-complex assay
The label depends only on inhibition: yes (1) if it is at least 80%, no (0) if it is smaller.

{"columns": ["smiles_str", "group_label"],
 "data": [
  ["O=C(Nc1ccc(-c2nc(N3CCOCC3)c3ccccc3n2)cc1)Nc1ccc(S(=O)(=O)Nc2ccc(F)cc2F)cc1", "no (0)"],
  ["O=C(Nc1ccc(-c2nc(N3CCOCC3)c3ccccc3n2)cc1)Nc1ccc(S(=O)(=O)Nc2ncccn2)cc1", "yes (1)"],
  ["O=C(Nc1ccc(-c2nc(N3CCOCC3)c3ccccc3n2)cc1)Nc1ccc(S(=O)(=O)Nc2ccccn2)cc1", "yes (1)"],
  ["O=C(Nc1ccc(-c2nc(N3CCOCC3)c3ccccc3n2)cc1)Nc1ccc(S(=O)(=O)Nc2ccc(F)cc2)cc1", "no (0)"],
  ["CCC(=O)c1ccc(NC(=O)Nc2ccc(-c3nc(N4CCOCC4)c4ccccc4n3)cc2)cc1", "no (0)"]
]}

stdin: Say whether O=C(Nc1ccc(-c2nc(N3CCOCC3)c3ccccc3n2)cc1)Nc1ccc(S(=O)(=O)Nc2ccccc2)cc1 shows inhibition of 80% or more.
stdout: no (0)

stdin: Say whether CCOC(=O)c1ccc(NC(=O)Nc2ccc(-c3nc(N4CCOCC4)c4ccccc4n3)cc2)cc1 shows inhibition of 80% or more.
stdout: no (0)

* * *

# assay_details: Kinetic aqueous solubility of compound in 2% DMSO/Phosphate buffer saline incubated for 90 mins under shaking condition by
# Format: physicochemical
# measurement_context: 2% DMSO/phosphate buffered saline, read-out: Kinetic_solubility
The label depends only on solubility kinetic at 1.5 h: true if it is at least 8 µM, false if it is smaller.

Check out these entries, answers already filled in.
{"columns": ["smiles_str", "group_label"],
 "data": [
  ["CNC(=O)Nc1ccc(-c2nc(N3CCOCC3)c3ccccc3n2)cc1", "true"],
  ["N=C(N)NS(=O)(=O)c1ccc(Nc2nc(N3CCOCC3)c3ccccc3n2)cc1", "true"],
  ["O=C(Nc1ccc(-c2nc(N3CCOCC3)c3ccccc3n2)cc1)Nc1ccc(S(=O)(=O)Nc2ccc(F)cc2F)cc1", "false"]
]}

stdin: Say whether O=C(Nc1ccc(-c2nc(N3CCOCC3)c3ccccc3n2)cc1)Nc1ccc(S(=O)(=O)Nc2ncccn2)cc1 shows solubility kinetic at 1.5 h of 8 µM or more.
stdout: true

stdin: Say whether CC(=O)c1ccc(NC(=O)Nc2ccc(-c3nc(N4CCOCC4)c4ccccc4n3)cc2)cc1 shows solubility kinetic at 1.5 h of 8 µM or more.
stdout: false

stdin: Say whether O=C(NCCO)Nc1ccc(-c2nc(N3CCOCC3)c3ccccc3n2)cc1 shows solubility kinetic at 1.5 h of 8 µM or more.
stdout: true

stdin: Say whether O=S(=O)(Nc1nccs1)c1ccc(Nc2nc(N3CCOCC3)c3ccccc3n2)cc1 shows solubility kinetic at 1.5 h of 8 µM or more.
stdout: true

stdin: Say whether O=C(Nc1ccc(-c2nc(N3CCOCC3)c3ccccc3n2)cc1)Nc1ccc(S(=O)(=O)Nc2ccc(F)cc2)cc1 shows solubility kinetic at 1.5 h of 8 µM or more.
stdout: false
